Where do the numbers come from? From patent US20210275641A1.

# Assay system: T1, human high affinity trimeric IL-2 receptor (CD25/CD122/CD132) (human, UniProt P01589 22-272; P14784 27-551; P31785 23-369)
# T1 sequence 1: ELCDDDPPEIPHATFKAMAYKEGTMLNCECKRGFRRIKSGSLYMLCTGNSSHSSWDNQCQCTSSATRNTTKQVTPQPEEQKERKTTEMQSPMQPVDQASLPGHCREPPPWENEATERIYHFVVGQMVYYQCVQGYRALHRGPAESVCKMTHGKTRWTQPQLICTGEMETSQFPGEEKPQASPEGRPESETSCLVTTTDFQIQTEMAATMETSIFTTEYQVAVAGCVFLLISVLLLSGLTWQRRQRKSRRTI
# T1 sequence 2: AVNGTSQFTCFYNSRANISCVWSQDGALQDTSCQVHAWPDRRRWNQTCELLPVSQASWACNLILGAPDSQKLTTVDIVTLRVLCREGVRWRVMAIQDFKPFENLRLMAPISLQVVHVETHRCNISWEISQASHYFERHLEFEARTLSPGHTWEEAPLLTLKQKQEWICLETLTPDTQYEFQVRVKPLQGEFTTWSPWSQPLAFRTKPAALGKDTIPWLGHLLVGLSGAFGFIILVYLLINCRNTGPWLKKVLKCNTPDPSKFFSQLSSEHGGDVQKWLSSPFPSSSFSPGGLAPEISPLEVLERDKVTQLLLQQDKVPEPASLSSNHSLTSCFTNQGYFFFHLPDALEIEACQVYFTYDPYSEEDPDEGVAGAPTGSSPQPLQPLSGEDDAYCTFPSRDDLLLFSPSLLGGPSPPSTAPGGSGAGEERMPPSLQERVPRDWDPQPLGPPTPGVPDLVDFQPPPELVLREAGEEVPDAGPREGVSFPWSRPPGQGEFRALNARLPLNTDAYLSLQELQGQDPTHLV
# T1 sequence 3: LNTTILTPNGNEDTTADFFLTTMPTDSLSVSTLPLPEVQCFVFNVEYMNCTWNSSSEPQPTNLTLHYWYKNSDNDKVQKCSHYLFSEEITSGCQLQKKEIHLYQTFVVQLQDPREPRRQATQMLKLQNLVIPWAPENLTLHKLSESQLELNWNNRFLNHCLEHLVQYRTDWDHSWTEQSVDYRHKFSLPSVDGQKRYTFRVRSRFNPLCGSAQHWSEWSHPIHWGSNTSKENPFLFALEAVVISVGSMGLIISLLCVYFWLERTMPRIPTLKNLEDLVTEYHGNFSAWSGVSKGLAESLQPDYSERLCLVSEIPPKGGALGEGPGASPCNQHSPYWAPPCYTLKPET
# Test summary: cell-based or functional assay
Label rule, in plain words: pSTAT5 ratio YT CD25/YT, dilution factor 2, lower table of 1 and up is 1.0, under 1 is 0.0.

Would you please look over these solved cases?
| Binder | Cat |
| --- | --- |
| RIH (ligand) cytokine: APTSSSTKKTQLQLEHLRLDLIMILNGINNYKNPKLTRMLTFKFYMPKKATELKHLQCLEEELKPLEEVLNLAQSKNFHLRPRDLISNINVIVLELKGSETTFMCEYADETATIVEFLNRWITFCHSIISTLT | 1.0 |
| RFH (ligand) cytokine: APTSSSTKKTQLQLEHLRLDLFMILNGINNYKNPKLTRMLTFKFYMPKKATELKHLQCLEEELKPLEEVLNLAQSKNFHLRPRDLISNINVIVLELKGSETTFMCEYADETATIVEFLNRWITFCHSIISTLT | 0.0 |
| RTH (ligand) cytokine: APTSSSTKKTQLQLEHLRLDLTMILNGINNYKNPKLTRMLTFKFYMPKKATELKHLQCLEEELKPLEEVLNLAQSKNFHLRPRDLISNINVIVLELKGSETTFMCEYADETATIVEFLNRWITFCHSIISTLT | 1.0 |
| YEH (ligand) cytokine: APTSSSTKKTQLQLEHLYLDLEMILNGINNYKNPKLTRMLTFKFYMPKKATELKHLQCLEEELKPLEEVLNLAQSKNFHLRPRDLISNINVIVLELKGSETTFMCEYADETATIVEFLNRWITFCHSIISTLT | 0.0 |

Now look at this one.
Task: Evaluate RDH (ligand) cytokine: APTSSSTKKTQLQLEHLRLDLDMILNGINNYKNPKLTRMLTFKFYMPKKATELKHLQCLEEELKPLEEVLNLAQSKNFHLRPRDLISNINVIVLELKGSETTFMCEYADETATIVEFLNRWITFCHSIISTLT : pSTAT5 ratio YT CD25/YT, dilution factor 2, lower table at minimum 1?
Output: 1.0
